The reported measurements were obtained from patent US20060257938A1.

Assay: Probe fluorescence ratio response to arachidonic acid relative to ADIFAB2
Format: binding
Details: arachidonic acid; response relative to ADIFAB2
Measured Attribute: DR/DR AA

Molecule: 17Q, 72A (protein, listed as Rattus norvegicus, PEPTIDE (1)...(131) wild-type rat intestinal fatty acid binding protein) AFDGTWKVDRNENYEKQMEKMGINVVKRKLGAHDNLKLTITQEGNKFTVKESSNFRNIDVVFELGVDFAYSAADGTELTGTWTMEGNKLVGKFKRVDNGKELIAVREISGNELIQTYTYEGVEAKRIFKKE
DR/DR AA: 0.62

Please turn your attention to the following entry.
Query block: Read the entry 31W, 72A (protein, listed as Rattus norvegicus, PEPTIDE (1)...(131) wild-type rat intestinal fatty acid binding protein) AFDGTWKVDRNENYEKFMEKMGINVVKRKLWAHDNLKLTITQEGNKFTVKESSNFRNIDVVFELGVDFAYSAADGTELTGTWTMEGNKLVGKFKRVDNGKELIAVREISGNELIQTYTYEGVEAKRIFKKE and write its reported DR/DR AA.
Result block: 0.993
